// EC50 (read off the curve) lookup, one value per entry
- Test Target: T1, Cad-11 37-mer peptide linked to BSA (encompasses the Cad-11 immunogen) (human)
- T1 sequence (peptide, linked to BSA): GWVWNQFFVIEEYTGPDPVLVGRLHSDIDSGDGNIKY
- Method Description: ELISA, BSA-coupled 37-mer cadherin peptide coated at 500 ng/ml, A450
Give just the number in µg/mL; leave the unit off.

Some entries whose results are on file:
- SDP121 humanized anti-Cad-11 EC1 antibody (Vκ3/VH2) (antibody, IgG4, V domains shown) VH: EVQLVQSGAEVKKPGASVKISCKASGYSFTGYFMNWVKQAPGQGLEWIGRINPYTGDTFYNQKFKGRATLTVDKSTSTAYMELSSLRSEDTAVYYCGRLGSRYWYFDVWGQGTTVTVSS VL: DVVMTQTPLSSPVTLGQPASISCRSSQSIIHSNGNTYLEWYLQKPGQSPQLLIYKVSNRFSGVPDRFSGSGSGTDFTLKISRVEAEDVGVYYCFQGSHVPWTFGQGTKLEIK: 0.05
- SDP131 humanized anti-Cad-11 EC1 antibody (Vκ3/VH3) (antibody, IgG4, V domains shown) VH: EVQLVQSGAEVKKPGASVKISCKASGYSFTGYFMNWVRQAPGQGLEWIGRINPYTGDTFYNQKFKGRATLTVDKSTSTAYMELSSLRSEDTAVYYCGRLGSRYWYFDVWGQGTTVTVSS VL: DVVMTQTPLSSPVTLGQPASISCRSSQSIIHSNGNTYLEWYLQKPGQSPQLLIYKVSNRFSGVPDRFSGSGSGTDFTLKISRVEAEDVGVYYCFQGSHVPWTFGQGTKLEIK: 0.07
- SDP141 humanized anti-Cad-11 EC1 antibody (Vκ3/VH4) (antibody, IgG4, V domains shown) VH: EVQLVQSGAEVKKPGASVKVSCKASGYSFTGYFMNWVRQAPGQGLEWIGRINPYTGDTFYNQKFKGRATITVDKSTSTAYMELSSLRSEDTAVYYCGRLGSRYWYFDVWGQGTTVTVSS VL: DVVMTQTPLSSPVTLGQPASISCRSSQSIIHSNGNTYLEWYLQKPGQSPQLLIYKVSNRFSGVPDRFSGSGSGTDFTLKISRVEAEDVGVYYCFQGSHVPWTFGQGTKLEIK: 0.06
- SDP041 humanized anti-Cad-11 EC1 antibody (Vκ1/VH4) (antibody, IgG4, V domains shown) VH: EVQLVQSGAEVKKPGASVKVSCKASGYSFTGYFMNWVRQAPGQGLEWIGRINPYTGDTFYNQKFKGRATITVDKSTSTAYMELSSLRSEDTAVYYCGRLGSRYWYFDVWGQGTTVTVSS VL: DVLMTQTPLSSPVTLGQPASISCRSSQSIIHSNGNTYLEWYLQKPGQSPQLLIYKVSNRFSGVPDRFTGSGSGTDFTLKISRVEAEDVGVYYCFQGSHVPWTFGQGTKLEIK: 0.06
- SDP031 humanized anti-Cad-11 EC1 antibody (Vκ1/VH3) (antibody, IgG4, V domains shown) VH: EVQLVQSGAEVKKPGASVKISCKASGYSFTGYFMNWVRQAPGQGLEWIGRINPYTGDTFYNQKFKGRATLTVDKSTSTAYMELSSLRSEDTAVYYCGRLGSRYWYFDVWGQGTTVTVSS VL: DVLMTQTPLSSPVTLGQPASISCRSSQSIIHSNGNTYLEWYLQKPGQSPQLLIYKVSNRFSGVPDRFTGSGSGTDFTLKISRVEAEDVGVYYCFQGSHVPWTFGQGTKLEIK: 0.06

EC50 (read off the curve) for SDP091 humanized anti-Cad-11 EC1 antibody (Vκ2/VH4) (antibody, IgG4, V domains shown) VH: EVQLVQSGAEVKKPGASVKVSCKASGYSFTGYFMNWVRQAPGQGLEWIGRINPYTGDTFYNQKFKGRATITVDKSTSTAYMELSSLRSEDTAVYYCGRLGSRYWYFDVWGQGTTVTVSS VL: DVLMTQTPLSSPVTLGQPASISCRSSQSIIHSNGNTYLEWYLQKPGQSPQLLIYKVSNRFSGVPDRFSGSGSGTDFTLKISRVEAEDVGVYYCFQGSHVPWTFGQGTKLEIK ?
0.07

Next record, please: SDP111 humanized anti-Cad-11 EC1 antibody (Vκ3/VH1) (antibody, IgG4, V domains shown) VH: EVQLVQSGPELKKPGASVKISCKASGYSFTGYFMNWVKQAHGQGLEWIGRINPYTGDTFYNQKFKGRATLTVDKSSSTAYMELVSLSSEDSAVYYCGRLGSRYWYFDVWGQGTTVTVSS VL: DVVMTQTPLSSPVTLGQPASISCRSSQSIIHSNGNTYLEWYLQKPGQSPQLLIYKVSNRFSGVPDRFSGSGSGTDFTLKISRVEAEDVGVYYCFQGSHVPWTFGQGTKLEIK
0.07

And for SDP081 humanized anti-Cad-11 EC1 antibody (Vκ2/VH3) (antibody, IgG4, V domains shown) VH: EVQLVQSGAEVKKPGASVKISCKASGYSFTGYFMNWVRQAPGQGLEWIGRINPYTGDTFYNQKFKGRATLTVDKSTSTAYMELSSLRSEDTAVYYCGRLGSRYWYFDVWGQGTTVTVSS VL: DVLMTQTPLSSPVTLGQPASISCRSSQSIIHSNGNTYLEWYLQKPGQSPQLLIYKVSNRFSGVPDRFSGSGSGTDFTLKISRVEAEDVGVYYCFQGSHVPWTFGQGTKLEIK ?
0.07

Request: SDP151 humanized anti-Cad-11 EC1 antibody (Vκ3/VH5) (antibody, IgG4, V domains shown) VH: EVQLVQSGAEVKKPGASVKVSCKASGYSFTGYFMNWVRQAPGQGLEWIGRINPYTGDTFYNQKFKGRVTITVDKSTSTAYMELSSLRSEDTAVYYCGRLGSRYWYFDVWGQGTTVTVSS VL: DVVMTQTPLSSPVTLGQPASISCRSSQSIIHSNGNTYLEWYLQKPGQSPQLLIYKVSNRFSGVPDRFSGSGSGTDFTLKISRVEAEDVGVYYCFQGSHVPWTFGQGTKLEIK
0.06

Next binder up: SDP061 humanized anti-Cad-11 EC1 antibody (Vκ2/VH1) (antibody, IgG4, V domains shown) VH: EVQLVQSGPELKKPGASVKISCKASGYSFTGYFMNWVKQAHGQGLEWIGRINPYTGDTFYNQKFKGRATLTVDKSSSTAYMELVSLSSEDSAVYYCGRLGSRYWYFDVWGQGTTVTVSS VL: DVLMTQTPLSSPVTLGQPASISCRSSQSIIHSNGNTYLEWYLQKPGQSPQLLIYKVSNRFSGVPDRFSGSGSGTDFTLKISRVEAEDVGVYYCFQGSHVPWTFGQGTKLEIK
0.05

Source of measurements: patent US20150132305A1
